Reference source: PubChem BioAssay

assayRemarks: Plasmodium falciparum growth inhibition, primary screen, strain 3D7, DAPI fluorescence, 100 nL (AID 1184);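 note: parasites grown inside human red blood cells in medium with human serum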
measurementContext: P. falciparum 3D7 growth, 3 d, higher = more signal
param class (str): category from z-score; see ranges I = under -2, II = from -2 up to -0.3, III = -0.3 and over

Examples from the recorded data:
molecule | label
COC(=O)[C@@]1(Cc2ccc(F)cc2)[C@H]2c3cc(C(=O)N4CCCC4)n(CCO)c3C[C@H]2CN1C(=O)c1ccccc1 | II
C=CCC(OC(C)=O)[C@@H]1[C@@H](N(Cc2ccc(-c3ccccc3)cc2)C(=O)c2ccc(C)cc2)c2cc(OCCCO)ccc2N1C(=O)c1ccc2ccccc2c1 (stereo not given in full) | II
CCOC(=O)C1=CC[C@@H](c2ccccc2)N(S(=O)(=O)c2ccc(C)cc2)[C@H]1C#N | II

Returns: class label. Input: `Cc1ccc(S[C@]2(C(=O)NCCCN(C)C)CC(=O)N(Cc3ccccc3Cl)[C@@H]2c2ccc(CO)cc2I)cc1`
II

Same lookup for `COCCOC(=O)N1C(=O)[C@@]2(c3ccccc31)[C@H](c1ccc(OCCO)cc1)N1[C@H](c3ccccc3)[C@H](c3ccccc3)OC(=O)[C@H]1[C@@H]2C(=O)N1CCN(c2ncccn2)CC1` , please.
I

Same lookup for `O=C1O[C@@H](c2ccccc2)[C@@H](c2ccccc2)N2[C@@H](c3ccc(OCCO)cc3)[C@]3(C(=O)Nc4ccc(C#CCCO)cc43)[C@@H](C(=O)Nc3nc4ccccc4s3)[C@H]12` , please.
II

###

Here the recorded composite z-score is given for each entry.
assayRemarks: small-molecule microarray binders of probe aEGFR, primary screen, biochemical, biotinylated probe, 635/667 nm fluorescence (AID 1097);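 note: probe is a biotinylated anti-EGFR antibody binding compounds printed on slides; score combines fluorescence near 667 nm and signal to noise of each spot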
measurementContext: higher = more signal
# print the numeric value only

// returns reported composite z-score for input C=CCC(OC(C)=O)[C@@H]1[C@@H](N(Cc2ccc(-c3ccccc3)cc2)C(=O)c2cccc3ccccc23)c2cc(OCCCO)ccc2N1C(=O)c1ccc2ccccc2c1 (some centres undefined)
-0.136

Same lookup for `CO[C@H]1O[C@H](CO)[C@@H](OC(=O)Nc2ccccc2)[C@@H]2OC(=O)[C@H](Cc3ccccc3)C/C=C/C[C@@H](Cc3ccccc3)C(=O)O[C@@H]12` , please.
0.0308

Same lookup for `O=C1c2ccccc2[C@](Cc2ccccc2I)(C(=O)O)[C@H](c2ccc(CO)cc2)N1Cc1ccccc1` , please.
-0.027

Same lookup for C=CC(CO)NC(=O)OCC1c2ccccc2-c2ccccc21 (centres undefined) , please.
-0.0192

###

measurementTarget: Left-right determination factor 2 (Homo sapiens)
assayRemarks: LEFTY2 binders on small-molecule microarrays, primary screen, biochemical, small-molecule microarray, 635 nm fluorescence scan (AID 1110)
measurementContext: LEFTY2 binding, higher = more signal
endpoint: composite z-score
# print the numeric value only

compound | measurementTarget | experimentalValue
CN1C(=O)C2C=CC(C(O)c3ccc(-c4ccccc4)s3)N(Nc3ccccc3)C2C1=O (stereo not given) | Left-right determination factor 2 (Homo sapiens) | 0.0874

// returns reported composite z-score for input `COc1ccc([Si](C)(C)[C@H]2[C@H](CC(=O)N3Cc4ccccc4C[C@H]3CO)O[C@@]3(C(=O)N(Cc4cccc(N5C(=O)c6cccc7cccc5c67)c4)c4ccccc43)[C@@H]2C)cc1`
0.633

Same lookup for `CC(C)CNC(=O)[C@@H]1c2ccccc2C(=O)N(Cc2ccccc2Cl)[C@H]1c1ccc(CO)cc1` , please.
-1.09

Same lookup for `C#CCN([C@H](/C=C/C1CC1)[C@@H](O)Cc1ccccc1)[C@@H](Cc1ccccc1)C(=O)OC` , please.
0.0052

Same lookup for Cc1ccccc1C(O)C1C=CC2C(=O)N(c3ccccc3)C(=O)C2N1Nc1ccccc1F (stereo not given) , please.
-0.0612

###

assayRemarks: small-molecule binders of probe aInhba, primary screen, biochemical, small-molecule microarray, 635/667 nm fluorescence (AID 1148);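 note: score merges 667nm spot fluorescence with signal-to-noise for antibody binding to printed compounds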
measurementContext: higher = more signal
Here the recorded composite z-score is given for each entry.

Here's what some known entries look like.
compound | composite z-score
O=C1OCCC/C=C\[C@H]2OC34C=CCN(Cc5ccccc5)C(=O)[C@H]3N(CCCCCO)C(=O)[C@@H]4C12 (stereo not given in full) | -0.186
NC(=O)[C@@]1(CCS(=O)(=O)c2ccccc2)COC(c2ccc(OCCCO)cc2)=N1 | -0.0044
C=CCN1C(=O)[C@]2(O[C@H](CCO)[C@@H]([Si](C)(C)c3ccc(OC)cc3)[C@@H]2C)c2ccccc21 | -0.209
CC#CCO[Si](C#CCCCCCC)(C(C)C)C(C)C | -0.288

# next compound below
// returns reported composite z-score for input Cc1ccccc1C(O)C1C=CC2C(=O)N(c3ccccc3)C(=O)C2N1Nc1ccccc1F (stereo not given)
0.0569

###

Tested on: Inhibin beta A chain (activin A)
assayRemarks: INHBA (activin A) binders on microarrays, primary screen, biochemical, small-molecule microarray, 635 nm fluorescence scan (AID 1107);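 note: mouse activin A protein probed at 4.33 µg/mL on printed slides; score merges bound-protein fluorescence near 667 nm with spot signal-to-noise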
measurementContext: small-molecule microarray binding, higher = more signal
Answer no if composite z-score is under 0.7, and yes if it is 0.7 or more.

compound | label
COc1cc2c(cc1O)C(c1ccc(CN3CCCC3)cc1)N(Cc1cccc(OC(F)(F)F)c1)CC2 (configuration not stated) | yes
COCCOC(=O)N1C(=O)[C@@]2(c3cc(C#CC4=CCCCC4)ccc31)[C@H](C(=O)N1CCc3cc(OC)c(OC)cc3C1)[C@H]1C(=O)O[C@H](c3ccccc3)[C@H](c3ccccc3)N1[C@@H]2c1ccc(O)cc1 | yes
C[N+](C)(C)CCCCCCNC(=O)[C@@H]1C[C@@H]2C(=O)N[C@@H](Cc3ccccc3)C(=O)N2[C@@H]1c1ccc(O)cc1 | no
CCOC(=O)C[C@H]1[C@H](OC(=O)Cc2ccc3c(c2)OCO3)[C@@H](NC(=O)c2ccccc2)c2cc(OCCCO)ccc2N1C(=O)Cc1ccc(OC)cc1 | no
COc1ccc([Si](C)(C)[C@H]2[C@H](CC(=O)N3Cc4ccccc4C[C@H]3CO)O[C@@]3(C(=O)N(Cc4cccc(N5C(=O)c6cccc7cccc5c67)c4)c4ccccc43)[C@@H]2C)cc1 | yes
CCCC[C@@H](O)C1=C(COC)Cn2c(=O)n(-c3ccccc3)c(=O)n2[C@H]1CO | yes

Continue with the compound presented below.
Textbook exercise: given the entry O=C1NC(=O)C2C1C=CC(C(O)c1cccc(O)c1)N2Nc1ccc(Cl)cc1Cl (configuration not stated) , state whether its composite z-score is greater than or equal to 0.7.
no

###

assayRemarks: CREB reporter modulators under forskolin, primary screen, cell-based, PC12, CRE-LacZ reporter, forskolin-stimulated (AID 1146);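 note: PC12 cells with 6xCRE LacZ reporter stimulated by forskolin 10 µM; beta-galactosidase reporter signal reflecting CREB driven transcription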
measurementContext: luminescence, 4.5 h, higher = more signal, called active from +8 up or from −8 down
Calls of active or inactive are those of the source.
endpoint: z-score

// returns reported z-score for input `C#CCN(C/C=C/c1ccccc1)[C@H](CO[Si](C)(C)C(C)(C)C)c1ccccc1`
-0.626 (inactive)

Same lookup for `C=CCN1C(=O)[C@]2(O[C@H](CCO)[C@@H]([Si](C)(C)c3ccc(OC)cc3)[C@@H]2C)c2ccccc21` , please.
-3.3 (inactive)

Same lookup for CC(C)(C)N1CC=CC23O[C@@H]4/C=C\CCCOC(=O)C4[C@H]2C(=O)N(CCCCCCO)[C@@H]3C1=O (some centres not stated) , please.
-0.739 (inactive)

Same lookup for `COC(=O)[C@@]1(Cc2ccc(F)cc2)[C@H]2c3cc(C(=O)N(C)C)n(CCO)c3C[C@H]2CN1C(=O)c1ccccc1` , please.
0.0355 (inactive)

###

Tested on: glycogen synthase kinase-3 (GSK3A per assay name; protocol says GSK3B)
assayRemarks: GSK3 binders on small-molecule microarrays, primary screen, biochemical, small-molecule microarray, 635 nm fluorescence, GSK3A (AID 1103); note: the record names both GSK3A and GSK3B
measurementContext: small-molecule microarray binding, fluorescence 635 nm; higher = more signal
Answer condition not met if composite z-score is under 0.6, and condition met if it is 0.6 or more.

Examples from the recorded data:
molecule | label
C=CCOC(=O)[C@H]1[C@@H]2C(=O)O[C@@H](c3ccccc3)[C@@H](c3ccccc3)N2[C@@H](c2ccc(OCCOC(=O)[C@H]3C[C@H]4C(=O)NCC(=O)N4[C@H]3c3ccc(O)cc3)cc2)[C@]12C(=O)Nc1ccc(I)cc12 | condition met
CC[C@H](C)C(=O)O[C@H]1CC[C@]2(C)C3=C(CCC2C1(C)C)[C@]1(C)CC[C@H]([C@H](C)CCCC(C)C)[C@@]1(C)CC3 (some centres undefined) | condition met
CCCCCCc1nc(-c2ccc(OC)nc2)cc2c1[Si](C(C)C)(C(C)C)OC2 | condition not met
Cc1ccc(S[C@]2(C(=O)NC3CC3)CC(=O)N(Cc3cc(C(F)(F)F)cc(C(F)(F)F)c3)[C@@H]2c2ccc(CO)cc2I)cc1 | condition not met

Textbook exercise: given the entry CCCCN1CC=CC23O[C@@H]4C=CCOC(=O)[C@@H]4[C@H]2C(=O)N(CCO)[C@@H]3C1=O (some centres undefined) , state whether its composite z-score is greater than or equal to 0.6.
condition not met

Same lookup for `COCCOC(=O)N1C(=O)[C@@]2(c3cc(C#Cc4ccc(OC)cc4)ccc31)[C@H](c1ccc(OCCO)cc1)N1[C@H](c3ccccc3)[C@H](c3ccccc3)OC(=O)[C@H]1[C@@H]2C(=O)N1CCCCCCC1` , please.
condition met

Same lookup for `C=C(/C(=C/C[C@H](OC(=O)c1ccncc1)c1ccccc1OCCO)c1cc(C(=O)OC)ccc1OC)C(C)C` , please.
condition not met

Same lookup for `Cc1c(-c2ccc(-c3ccc(Cl)c(Cl)c3)o2)nc(-c2ccccc2)c2c1CO[Si]2(C(C)C)C(C)C` , please.
condition not met

Same lookup for `NCCCC[C@@H]1NC(=O)[C@H]2C[C@@H](C(=O)NCc3ccc(F)cc3)[C@@H](c3ccc(O)cc3)N2C1=O` , please.
condition met

Same lookup for `COCCOC(=O)N1C(=O)[C@@]2(c3cc(C#CC4=CCCCC4)ccc31)[C@H](C(=O)N1CCc3cc(OC)c(OC)cc3C1)[C@H]1C(=O)O[C@H](c3ccccc3)[C@H](c3ccccc3)N1[C@@H]2c1ccc(O)cc1` , please.
condition met
